Where these numbers come from: PubChem BioAssay (Tox21)

test: A CellTox Green Cytotoxicity Assay to monitor cytotoxicity in HEK293 cells - 8 hour (AID 1224884); settings: CellTox Green fluorescence; series mostly up to 76.8 µM; also: nearly all actives have a fitted effect of over 35% in size
Records with an inconclusive call do not appear. Active and inactive are the calls of the source. Calls follow the shape of the dose curve; as a rule, active = well fitted activation curve with a large enough effect in the repeat runs; inconclusive = weak or mixed curves; inactive = flat fitted curve, though single readings scatter.
Outcomes: 1 (yes) = active, 0 (no) = inactive

- molecule: "NNc1nc(-c2ccc(N)cc2)cs1"
  answer label: "0 (no)"
- molecule: "COC(=O)c1cc(Cl)ccc1OC"
  answer label: "0 (no)"
- molecule: "O=C(c1ccc(F)cc1)C1CCN(CCn2c(=O)[nH]c3ccccc3c2=O)CC1"
  answer label: "0 (no)"
- molecule: "CSc1ccc2c(c1)C(N1CCN(C)CC1)Cc1ccccc1S2 (stereo not drawn)"
  answer label: "0 (no)"
- molecule: "CC(=O)OCC(C)OC(C)=O (stereo not drawn)"
  answer label: "0 (no)"
- molecule: "NC(=O)N1C(=O)C(C(=O)c2cc(Cl)cs2)c2cc(F)c(Cl)cc21 (stereo not drawn)"
  answer label: "0 (no)"
- molecule: "CCC1=C[C@@H]2CN(C1)Cc1c([nH]c3ccccc13)[C@@](C(=O)OC)(c1cc3c(cc1OC)N(C)[C@H]1[C@@](O)(C(=O)OC)[C@H](OC(C)=O)[C@]4(CC)C=CCN5CC[C@]31[C@@H]54)C2"
  answer label: "0 (no)"
- molecule: "Clc1ccc2nsnc2c1NC1=NCCN1"
  answer label: "0 (no)"
- molecule: "O=C1CCCc2c1cc1ccc3cccc4ccc2c1c34"
  answer label: "0 (no)"
- molecule: "COc1c(C)c2c(c(O)c1C/C=C(\\C)CCC(=O)O)C(=O)OC2"
  answer label: "0 (no)"
- molecule: "CCCCN1C(=O)[C@@H]([C@H](O)C2CCCCC2)NC(=O)C12CCN(Cc1ccc(Oc3ccc(C(=O)O)cc3)cc1)CC2"
  answer label: "0 (no)"
- molecule: "CCC(N)(CO)CO"
  answer label: "0 (no)"
- molecule: "CCCCCCCC/C=C/CCCCCCCC1=NCCN1CCO"
  answer label: "1 (yes)"
- molecule: "C1CCCC1"
  answer label: "0 (no)"
- molecule: "Cc1cccc(S(=O)(=O)O)c1C"
  answer label: "0 (no)"
- molecule: "CCCCCCOC(=O)c1ccc(O)cc1"
  answer label: "0 (no)"
- molecule: "O=c1[nH]sc2cc(Cl)ccc12"
  answer label: "0 (no)"
- molecule: "N=C1C=CC(=C(c2ccc(N)cc2)c2ccc(N)cc2)C=C1"
  answer label: "0 (no)"
- molecule: "CC(=O)SC[C@@H](Cc1ccccc1)C(=O)NCC(=O)OCc1ccccc1"
  answer label: "0 (no)"
- molecule: "O=C(N/N=C/c1ccccc1O)c1ccncc1"
  answer label: "0 (no)"
- molecule: "C[C@@H]1C[C@H]2[C@@H]3CCC4=CC(=O)C=C[C@]4(C)[C@@]3(Cl)[C@@H](O)C[C@]2(C)[C@@]1(OC(=O)c1ccco1)C(=O)CCl"
  answer label: "0 (no)"
- molecule: "c1cc(C(c2ccc(OCC3CO3)cc2)c2ccc(OCC3CO3)cc2)ccc1OCC1CO1 (stereo not drawn)"
  answer label: "0 (no)"
- molecule: "CCCCCCCCCCn1cc[n+](CCCCCCCCCC)c1C"
  answer label: "1 (yes)"

====

Experiment: qHTS RealTime-Glo MT Cell Viability Assay in HEK293 cells - 32 hour (AID 1224868); also: nearly all actives have a fitted effect of over 50% in size
Details: RealTime-Glo luminescence; series mostly up to 76.8 µM
From the text: National Center for Advancing Translational Sciences [NCATS] NIH Chemical Genomics Center [NCGC] U.S. Environmental Protection Agency [EPA] National Institutes of Environmental Health Sciences [NIEHS] National Toxicology Program [NTP] U.S. Food and Drug Administration [FDA] Measure of cell viability is critical in the cell-base assay. Analysis of cell viability is necessary for the characterization of cell responses to cytotoxic drugs and environmental stress. […]
Records with an inconclusive call do not appear. The source made the active and inactive calls. The call rests on the fitted dose curve; in most records, active means well fitted cell-killing curve with a large enough effect in the repeat runs; inconclusive means weak or mixed curves, or effect the other way; inactive means flat fitted curve, though single readings scatter.
Outcome codes: Y (active), N (inactive)

- compound: "O=C(OCC(COC(=O)c1ccccc1)(COC(=O)c1ccccc1)COC(=O)c1ccccc1)c1ccccc1"
  answer label: "Y"
- compound: "CCCCc1oc2ccc(NS(C)(=O)=O)cc2c1C(=O)c1ccc(OCCCN(CCCC)CCCC)cc1"
  answer label: "Y"
- compound: "CCCCCCCCCOC(=O)c1ccc(O)cc1"
  answer label: "Y"
- compound: "C/C=C(\\C)C(=O)OCc1ccccc1"
  answer label: "N"
- compound: "Oc1ccc(C2(c3ccc(O)cc3)CC3CC2C2CCCC32)cc1 (stereo unspecified)"
  answer label: "Y"
- compound: "N#CSc1ccc(N)c([N+](=O)[O-])c1"
  answer label: "Y"

====

experiment: qHTS assay to identify small molecule antagonists of the vitamin D receptor (VDR) signaling pathway - cell viability counter screen (AID 743225); conditions: VDR-bla HEK293T viability, CellTiter-Glo luminescence, 16 h; series mostly up to 61 µM; also: nearly all actives have a fitted effect of over 50% in size
Records with an inconclusive call do not appear. Active and inactive are the calls of the source. The call rests on the fitted dose curve; in most records, active means well fitted cell-killing curve with a large enough effect in the repeat runs; inconclusive means weak or mixed curves, or effect the other way; inactive means no such curve, though single readings can be large or run the other way.
Outcomes: label 1 for active, label 0 for inactive

- molecule: "Cc1cc(O)c(C(C)(C)C)cc1Sc1cc(C(C)(C)C)c(O)cc1C"
  answer label: "label 1"
- molecule: "CC(=O)OCC(C)OC(C)=O (stereo unspecified)"
  answer label: "label 0"
- molecule: "Cc1ccc(-n2nc(C(C)(C)C)cc2NC(=O)Nc2ccc(OCCN3CCOCC3)c3ccccc23)cc1"
  answer label: "label 0"
- molecule: "COc1ccc(CN2CCN(C(c3ccc(F)cc3)c3ccc(F)cc3)CC2)c(OC)c1OC"
  answer label: "label 1"
- molecule: "Cc1ccc(O)c(C(C)(C)C)c1"
  answer label: "label 1"
- molecule: "NC(=O)N1C(=O)C(C(=O)c2cc(Cl)cs2)c2cc(F)c(Cl)cc21 (stereo unspecified)"
  answer label: "label 1"
- molecule: "CCCCCCCC(=O)[O-].CCCCCCCC(=O)[O-].[Zn+2]"
  answer label: "label 0"
- molecule: "NNC(=O)c1cccc(C(=O)NN)c1"
  answer label: "label 0"
- molecule: "Cc1cc(CCN2CCN(c3nsc4ccccc34)CC2)cc2c1NC(=O)CC2(C)C"
  answer label: "label 1"
- molecule: "CC(C)(C)C(=O)OCOC(=O)C1N2C(=O)CC2S(=O)(=O)C1(C)C (stereo unspecified)"
  answer label: "label 0"
- molecule: "CCCC(c1cc(C(C)(C)C)c(O)cc1C)c1cc(C(C)(C)C)c(O)cc1C"
  answer label: "label 1"

====

test: qHTS assay to identify small molecule antagonists of the estrogen related receptor signaling pathway with the pleiotropic PPARgamma coactivator (PGC) from Tox21 10K library - cell viability counter screen (AID 1224840); details: PGC/ERR reporter cells viability, CellTiter-Fluor, 17.5 h; series mostly up to 92.4 µM; also: nearly all actives have a fitted effect of over 40% in size
Records with an inconclusive call do not appear. The source made the active and inactive calls. Calls come from the whole dose curve; as a rule, active = well fitted cell-killing curve with a large enough effect in the repeat runs (not every such curve was filed as active); inconclusive = weak or mixed curves, or effect the other way; inactive = no such curve, though single readings can be large or run the other way.
Possible outcomes: yes (active), no (inactive)

- compound: "CN(C)c1ccc(C2(c3ccc(N(C)C)cc3)OC(=O)c3cc(N(C)C)ccc32)cc1"
  answer label: "no"
- compound: "NNC(=O)c1cccc(C(=O)NN)c1"
  answer label: "no"
- compound: "CCC(Cl)C(Cl)C(Cl)CC(Cl)C(Cl)C(C)Cl (stereo unspecified)"
  answer label: "no"
- compound: "Cc1nc(-c2ccc3c(c2)CCN(CCC2CCC(NC(=O)/C=C/c4ccc(F)cc4)CC2)CC3)no1 (stereo unspecified)"
  answer label: "no"
- compound: "CNC(=O)c1ccccc1"
  answer label: "no"
- compound: "NC(=O)C1(N2CCCCC2)CCN(CCCN2c3ccccc3CCc3ccc(Cl)cc32)CC1"
  answer label: "yes"

====

assay: qHTS assay for small molecule agonists of the p53 signaling pathway (AID 651631); settings: HCT-116 p53RE-bla reporter, beta-lactamase FRET ratio, 16 h; series mostly up to 73.3 µM; also: nearly all actives have a fitted effect of over 15% in size
Results filed as inconclusive are left out. The source made the active and inactive calls. Calls come from the whole dose curve.
Outcome codes: active, inactive

- molecule: "Cc1cccc(S(=O)(=O)O)c1C"
  answer label: "inactive"
- molecule: "O=C(O)c1ccc(Cl)c(Cl)c1"
  answer label: "inactive"
- molecule: "O=C(O)c1c(Cl)cccc1Cl"
  answer label: "inactive"
- molecule: "COc1c(C)c2c(c(O)c1C/C=C(\\C)CCC(=O)O)C(=O)OC2"
  answer label: "active"
- molecule: "O=C1CCCc2c1cc1ccc3cccc4ccc2c1c34"
  answer label: "active"
- molecule: "O=C(Nc1ccc(Oc2ccc(Cl)cc2)c(Cl)c1)c1cc(I)cc(I)c1O"
  answer label: "active"
- molecule: "CCN1/C(=C/C=C/c2sc3ccccc3[n+]2CC)Sc2ccccc21"
  answer label: "active"
- molecule: "CCN(CC)CCCC(C)Nc1c2ccc(Cl)cc2nc2ccc(OC)cc12 (stereo unspecified)"
  answer label: "active"
- molecule: "CCOC(=O)/C=C(C)/C=C/C=C(C)/C=C/c1c(C)cc(OC)c(C)c1C"
  answer label: "active"
- molecule: "CSc1cnc(C)cn1"
  answer label: "inactive"
- molecule: "Cc1cc2c(cc1C(F)(F)F)N(C(=O)Nc1ccc(Oc3cccnc3C)nc1)CC2"
  answer label: "inactive"
